- Measurement target: T1, recombinant human IL-1α (human, UniProt P01583 113-271)
- T1 construct: also called hIL-1α; rh IL-1α
- T1 sequence: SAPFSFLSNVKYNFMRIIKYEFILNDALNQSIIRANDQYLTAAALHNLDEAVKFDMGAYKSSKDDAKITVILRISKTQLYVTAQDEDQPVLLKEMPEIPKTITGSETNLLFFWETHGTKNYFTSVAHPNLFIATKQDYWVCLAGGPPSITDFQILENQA
- Protocol: SPR (BIACORE), antibody captured, IL-1α in solution
Quantity: koff (s⁻¹)

Binder: h3D12.8 (antibody, V domains shown, also called humanized 3D12 antibody h3D12.8; VH H3D12VH.1A / VL H3D12VK.1C) VH: EIQLVQSGSELKKPGASVKVSCKASGYTFTNYGMNWVRQAPGQDLERMAWINTYTGESTYADDFKGRFVFSLDTSVSTAYLQISSLKAEDTAVYFCARGIYYYGSSYAMDYWGQGTTVTVSS VL: DIQMTQSPSSLSASVGDRVTITCRASQDISNCLNWYQQKPGKTPKLLIYYTSRLHSGVPSRFSGSGSGTDYTFTISSLQPEDIATYFCQQGKTLPYAFGQGTKLEIK
Quantity: koff
Experimental result: 0.00274

Binder: h3D12.r16 (antibody, V domains shown) VH: EVQLVQSGAEVKKPGASVKVSCKASGYTFKYYGMNWVRQAPGQGLERMGWINTYTGQSTYADDFKGRVTFTLDTSTSTAYMELSSLRSEDTAVYYCARDIYYYGSDFAMDYWGQGTTVTVSS VL: DIQMTQSPSSLSASVGDRVTITCRASQDISNMLNWYQQKPGKAPKLLIYYTSRLKPGVPSRFSGSGSGTDYTFTISSLQPEDIATYFCQQGKTAPYTFGQGTKLEIK
Quantity: koff
Experimental result: 2.77e-05

Binder: h3D12.16 (antibody, V domains shown, also called humanized 3D12 antibody h3D12.16; VH H3D12VH.2A / VL H3D12VK.1C) VH: EIQLVQSGAEVKKPGASVKVSCKASGYTFTNYGMNWVRQAPGQDLERMAWINTYTGESTYADDFKGRFTFTLDTSTSTAYMELSSLRSEDTAVYFCARGIYYYGSSYAMDYWGQGTTVTVSS VL: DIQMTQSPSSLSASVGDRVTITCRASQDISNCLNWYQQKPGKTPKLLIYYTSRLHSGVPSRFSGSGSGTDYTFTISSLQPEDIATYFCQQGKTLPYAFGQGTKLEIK
Quantity: koff
Experimental result: 0.00253

Binder: h3D12-362-10/372-15 (antibody, V domains shown) VH: EVQLVQSGAEVKKPGVSVKVSCKASGYTFTTYGMHWVRQAPGQGLEWMGWINTYTGESTYADDFQGRVTFTLDTSTSTAYMELSSLRSEDTAVYFCARGIYYYGSSYAMNYWGQGTTVTVSS VL: DIQMTQSPSSLSASVGDRVTITCRASQDISNMLNWYQQKPGKTPKLLIYYTSRLYPGVPSRFSGSGSGTDYTFTISSLQPEDIATYFCQQGKTLPYAFGQGTKLEIK
Quantity: koff
Experimental result: 4.1e-05

Binder: h3D12.r37 (antibody, V domains shown) VH: EIQLVQSGAEVKKPGASVKVSCKASGYTFKYYGMNWVRQAPGQGLERMGWINTYTGESRYADDFKGRVTFTLDTSTSTAYMELSSLRSEDTAVYYCARDIYYFGSDYAMDYWGQGTTVTVSS VL: DIQMTQSPSSLSASVGDRVTITCRASQDISNRLNWYQQKPGKAPKLLIYYASRLKPGVPSRFSGSGSGTDYTFTISSLQPEDIATYFCQQGNTPPYTFGQGTKLEIK
Quantity: koff
Experimental result: 2.54e-05

Binder: h3D12.r10 (antibody, V domains shown) VH: EIQLVQSGAEVKKPGASVKVSCKASGYTFAHYGMNWVRQAPGQGLEWMGWINTYTGQSTYADDFKGRFTFTLDTSTSTAYMELSSLRSEDTAVYYCARGIYYFGSNYAMDYWGQGTTVTVSS VL: DIQMTQSPSSLSASVGDRVTITCRASQDISNMLNWYQQKPGKTPKLLIYYTSRLRSGVPSRFSGSGSGTDYTFTISSLQPEDIATYFCQQGKKPPYTFGQGTKLEIK
Quantity: koff
Experimental result: 3.75e-05
